# experimental.system: T1, Thyrotropin-releasing hormone receptor 2 (TRHR-2), rat, expressed in HEK293s cells from pCDNA3-TRHR2 (rat)
# T1 construct: 352 amino acid open reading frame cloned from a rat brain stem-spinal cord cDNA library; also called TRH receptor 2; 293S/TRH-R clonal cell line
# T1 chain: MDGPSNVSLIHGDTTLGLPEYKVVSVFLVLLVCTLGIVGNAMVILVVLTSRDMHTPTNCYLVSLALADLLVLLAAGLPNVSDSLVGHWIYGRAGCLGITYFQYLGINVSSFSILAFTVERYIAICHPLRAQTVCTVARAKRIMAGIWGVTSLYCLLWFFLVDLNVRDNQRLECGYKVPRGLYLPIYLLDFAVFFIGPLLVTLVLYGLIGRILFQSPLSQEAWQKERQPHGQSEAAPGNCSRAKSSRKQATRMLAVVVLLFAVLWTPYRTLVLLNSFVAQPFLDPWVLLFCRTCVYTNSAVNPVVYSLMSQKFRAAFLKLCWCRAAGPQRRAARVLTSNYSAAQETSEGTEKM
# test.method.notes: competition with 3H-TRH tracer on whole cells, 293S/TRH-R clonal cell line
# Experimental: The TRH binding assay was performed on whole cells. Transfected cells were washed twice with HBSS (Gibco BRL, cat# 14065) supplemented with 0.05% bovine serum albumin, detached by gentle pipetting and aliquoted in eppendorf tubes for binding assays. One twentieth of the cells collected from a confluent 75 cm² flask was used per assay point. […] Filters were counted with the Topcount microplate counter from Canberra Packard. […]
Where no end group is shown, it is not given here. [ ]: non-standard residue; d: D form. pGlu = O=C1CC[C@@H](C(=O)O)N1
readout.kind: IC50 (nM)
Answer in nM, number only, no unit symbol.

## Input What value of measured IC50 is listed for [pGlu]HPG (TRH-related peptide with a modified C-terminus) [pGlu-His-Pro-Gly] ?
## Output 641
